Recorded values, source ChEMBL document CHEMBL1765082.

What log10 of Ki was measured for each of the following?
# Measured On: Delta-type opioid receptor (Homo sapiens, UniProt P41143)
# Sequence (P41143 whole entry): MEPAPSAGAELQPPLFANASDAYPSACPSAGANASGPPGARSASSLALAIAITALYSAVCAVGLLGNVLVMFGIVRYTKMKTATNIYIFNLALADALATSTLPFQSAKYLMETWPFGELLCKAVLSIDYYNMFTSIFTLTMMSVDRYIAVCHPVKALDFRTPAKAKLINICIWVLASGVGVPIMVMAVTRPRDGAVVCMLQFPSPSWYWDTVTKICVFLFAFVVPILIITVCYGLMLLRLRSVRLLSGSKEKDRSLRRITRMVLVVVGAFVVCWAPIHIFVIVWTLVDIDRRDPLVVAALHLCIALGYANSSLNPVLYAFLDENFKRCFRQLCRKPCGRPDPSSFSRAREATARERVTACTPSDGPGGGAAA
# Method: Displacement of [3H]Naltrindole from human delta opioid receptor expressed in CHO cells after 3 hrs by scintillation counting
Could you please treat all values as log10 of Ki in µM?

Chemical String | log10 of Ki
CN(C)c1nc2cc3c(cc2s1)C[C@@H]1[C@@H]2CCCC[C@]32CCN1CCCF | -0.38
CC(=O)Nc1nc2cc3c(cc2s1)C[C@@H]1[C@@H]2CCCC[C@]32CCN1CCCF | -0.66
CCNc1nc2cc3c(cc2s1)C[C@@H]1[C@@H]2CCCC[C@]32CCN1CC1CCC1 | -1.04

Give me log10 of Ki for each of these compounds, listed below.
1. Nc1nc2cc3c(cc2s1)C[C@@H]1[C@@H]2CCCC[C@]32CCN1CCCF
2. CNc1nc2cc3c(cc2s1)C[C@@H]1[C@@H]2CCCC[C@]32CCN1CC1CCC1
3. CCNC(=S)Nc1nc2cc3c(cc2s1)C[C@@H]1[C@@H]2CCCC[C@]32CCN1CC1CC1
4. COc1cccc(CNc2nc3cc4c(cc3s2)C[C@@H]2[C@@H]3CCCC[C@]43CCN2CC2CC2)c1
5. CCCNc1nc2cc3c(cc2s1)C[C@@H]1[C@@H]2CCCC[C@]32CCN1CCCF

## Output
[-1.27, -1.33, -0.82, -1.47, -0.92]

## Input // lookup log10 of Ki | system=Delta-type opioid receptor (Homo sapiens, UniProt P41143) | key= Nc1nc2cc3c(cc2s1)C[C@@H]1[C@@H]2CCCC[C@]32CCN1C[C@@H]1CCCO1
## Output -1.25

----------
The following compounds have recorded log10(Ki) on Mu-type opioid receptor (Homo sapiens).
Sequence (P35372 whole entry): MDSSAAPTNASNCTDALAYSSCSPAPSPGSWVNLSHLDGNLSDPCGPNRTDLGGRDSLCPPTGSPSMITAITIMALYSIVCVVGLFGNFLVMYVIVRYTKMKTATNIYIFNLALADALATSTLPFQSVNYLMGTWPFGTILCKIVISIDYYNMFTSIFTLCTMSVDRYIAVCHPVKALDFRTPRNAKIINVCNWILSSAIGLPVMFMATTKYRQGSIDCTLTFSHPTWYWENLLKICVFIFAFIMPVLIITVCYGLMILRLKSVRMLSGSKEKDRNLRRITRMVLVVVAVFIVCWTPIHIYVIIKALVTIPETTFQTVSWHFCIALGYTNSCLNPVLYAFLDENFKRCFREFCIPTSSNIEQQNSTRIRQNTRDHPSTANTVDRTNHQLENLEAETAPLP
Note the log scale: values are log10 of Ki expressed in nM.

Chemical String | log10(Ki)
CNc1nc2cc3c(cc2s1)C[C@@H]1[C@@H]2CCCC[C@]32CCN1CCCF | 0.87
CC(=O)Nc1nc2cc3c(cc2s1)C[C@@H]1[C@@H]2CCCC[C@]32CCN1CC1CC1 | 1.76
CC(=O)N(C)c1nc2cc3c(cc2s1)C[C@@H]1[C@@H]2CCCC[C@]32CCN1CC1CC1 | 2.04
CCN(C(C)=O)c1nc2cc3c(cc2s1)C[C@@H]1[C@@H]2CCCC[C@]32CCN1CC1CC1 | 1.93
c1ccc(CNc2nc3cc4c(cc3s2)C[C@@H]2[C@@H]3CCCC[C@]43CCN2CC2CC2)cc1 | 1.00

We now examine a further compound.
## Input What value of log10(Ki) has been reported for the following compound? CCNc1nc2cc3c(cc2s1)C[C@@H]1[C@@H]2CCCC[C@]32CCN1CCCF
## Output 0.60

----------
# Measured On: UniProt P41145
# Method: Agonist activity at human kappa opioid receptor expressed in CHO cells assessed as [35S]GTPgammaS binding by scintillation counting
Assay Readout: EC50 (nM)
One number for each entry, in nM.

Known results for molecules:
Chemical String | EC50, nM
Nc1nc2cc3c(cc2s1)C[C@@H]1[C@@H]2CCCC[C@]32CCN1C[C@@H]1CCCO1 | 14
CN(C)c1nc2cc3c(cc2s1)C[C@@H]1[C@@H]2CCCC[C@]32CCN1CC1CC1 | 46
Nc1nc2cc3c(cc2s1)C[C@@H]1[C@@H]2CCCC[C@]32CCN1CCCF | 32
FC(F)(F)CNc1nc2cc3c(cc2s1)C[C@@H]1[C@@H]2CCCC[C@]32CCN1CC1CC1 | 120

Provide reported EC50 for each item, in the same order as listed.
1. CNc1nc2cc3c(cc2s1)C[C@@H]1[C@@H]2CCCC[C@]32CCN1CC1CC1
2. CCNc1nc2cc3c(cc2s1)C[C@@H]1[C@@H]2CCCC[C@]32CCN1CCCF

## Output
[14, 89]

----------
# Measured On: Kappa-type opioid receptor (Homo sapiens, UniProt P41145)
# Sequence (P41145 whole entry): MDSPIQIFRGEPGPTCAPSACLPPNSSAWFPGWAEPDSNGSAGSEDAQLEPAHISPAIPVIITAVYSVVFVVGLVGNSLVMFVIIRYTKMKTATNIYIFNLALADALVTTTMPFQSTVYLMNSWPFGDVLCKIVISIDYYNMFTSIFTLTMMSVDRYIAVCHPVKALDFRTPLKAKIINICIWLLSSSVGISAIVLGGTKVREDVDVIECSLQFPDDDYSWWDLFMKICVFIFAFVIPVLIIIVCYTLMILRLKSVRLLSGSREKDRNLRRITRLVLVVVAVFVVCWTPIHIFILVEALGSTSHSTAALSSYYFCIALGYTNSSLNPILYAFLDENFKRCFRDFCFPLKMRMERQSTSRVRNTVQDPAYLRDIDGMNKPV
Labelling: Ki reported below 6 nM becomes True; at or above becomes False.

Some entries whose results are on file:
Chemical String | Label
CCN(C(C)=O)c1nc2cc3c(cc2s1)C[C@@H]1[C@@H]2CCCC[C@]32CCN1CC1CC1 | False
Oc1cccc(CNc2nc3cc4c(cc3s2)C[C@@H]2[C@@H]3CCCC[C@]43CCN2CC2CC2)c1 | True
CNc1nc2cc3c(cc2s1)C[C@@H]1[C@@H]2CCCC[C@]32CCN1CC1CCC1 | True
COc1cccc(CNc2nc3cc4c(cc3s2)C[C@@H]2[C@@H]3CCCC[C@]43CCN2CC2CC2)c1 | True
CCNC(=S)Nc1nc2cc3c(cc2s1)C[C@@H]1[C@@H]2CCCC[C@]32CCN1CC1CC1 | False

API: the following record is the query input.
## Input Does CNc1nc2cc3c(cc2s1)C[C@@H]1[C@@H]2CCCC[C@]32CCN1CC1CC1 have Ki strictly under 6 nM?
## Output True

----------
# Measured On: UniProt:P35372
# label = 1 if Ki < 3 nM else -1

Chemical String | Measured On | Label
CCNc1nc2cc3c(cc2s1)C[C@@H]1[C@@H]2CCCC[C@]32CCN1CC1CCC1 | UniProt:P35372 | 1
COc1cccc(CNc2nc3cc4c(cc3s2)C[C@@H]2[C@@H]3CCCC[C@]43CCN2CC2CC2)c1 | UniProt:P35372 | -1
FC(F)(F)CNc1nc2cc3c(cc2s1)C[C@@H]1[C@@H]2CCCC[C@]32CCN1CC1CC1 | UniProt:P35372 | -1
CCCNc1nc2cc3c(cc2s1)C[C@@H]1[C@@H]2CCCC[C@]32CCN1CC1CC1 | UniProt:P35372 | -1
CCNC(=S)Nc1nc2cc3c(cc2s1)C[C@@H]1[C@@H]2CCCC[C@]32CCN1CC1CC1 | UniProt:P35372 | -1
c1ccc(Nc2nc3cc4c(cc3s2)C[C@@H]2[C@@H]3CCCC[C@]43CCN2CC2CC2)nc1 | UniProt:P35372 | -1

## Input For this compound, is Ki lower than 3 nM? Nc1nc2cc3c(cc2s1)C[C@@H]1[C@@H]2CCCC[C@]32CCN1C[C@@H]1CCCO1
## Output 1

----------
Please go through the items and note down their Ki.
# Measured On: Delta-type opioid receptor (Homo sapiens, UniProt P41143)
# Method: Displacement of [3H]Naltrindole from human delta opioid receptor expressed in CHO cells after 3 hrs by scintillation counting
Give bare numbers, in nM.

# annotated cases, reported Ki shown
Chemical String | Measured On | Unit String | Ki
CCCNc1nc2cc3c(cc2s1)C[C@@H]1[C@@H]2CCCC[C@]32CCN1CC1CC1 | Delta-type opioid receptor (Homo sapiens, UniProt P41143) | nM | 79
CCN(C(C)=O)c1nc2cc3c(cc2s1)C[C@@H]1[C@@H]2CCCC[C@]32CCN1CC1CC1 | Delta-type opioid receptor (Homo sapiens, UniProt P41143) | nM | 740
CC(=O)N(C)c1nc2cc3c(cc2s1)C[C@@H]1[C@@H]2CCCC[C@]32CCN1CC1CC1 | Delta-type opioid receptor (Homo sapiens, UniProt P41143) | nM | 1100

## Input // query Ki value for entry CN(C)c1nc2cc3c(cc2s1)C[C@@H]1[C@@H]2CCCC[C@]32CCN1CC1CC1
## Output 65

----------
# Measured On: Kappa-type opioid receptor (Homo sapiens)
What Ki was measured for each of the following?
Answers are plain numbers, in nM.

Chemical String | Ki, nM
CC(=O)Nc1nc2cc3c(cc2s1)C[C@@H]1[C@@H]2CCCC[C@]32CCN1CCCF | 1.2

// for each compound below, give its Ki
1. CN(C)c1nc2cc3c(cc2s1)C[C@@H]1[C@@H]2CCCC[C@]32CCN1CC1CC1
2. Nc1nc2cc3c(cc2s1)C[C@@H]1[C@@H]2CCCC[C@]32CCN1C[C@@H]1CCCO1
3. CCNc1nc2cc3c(cc2s1)C[C@@H]1[C@@H]2CCCC[C@]32CCN1CC1CC1
4. CCNc1nc2cc3c(cc2s1)C[C@@H]1[C@@H]2CCCC[C@]32CCN1CC1CCC1

## Output
1: 0.45; 2: 0.83; 3: 0.151; 4: 3.7

----------
# Organism: Homo sapiens
# Method: Selectivity ratio of Ki for human delta opioid receptor to Ki for human kappa opioid receptor
Assay Readout: Ratio Ki

# annotated cases, reported Ratio Ki shown
Chemical String | Assay Readout | Endpoint Value
COc1cccc(CNc2nc3cc4c(cc3s2)C[C@@H]2[C@@H]3CCCC[C@]43CCN2CC2CC2)c1 | Ratio Ki | 7
CCCNc1nc2cc3c(cc2s1)C[C@@H]1[C@@H]2CCCC[C@]32CCN1CCCF | Ratio Ki | 21
CCNC(=S)Nc1nc2cc3c(cc2s1)C[C@@H]1[C@@H]2CCCC[C@]32CCN1CC1CC1 | Ratio Ki | 8
CC(=O)Nc1nc2cc3c(cc2s1)C[C@@H]1[C@@H]2CCCC[C@]32CCN1CC1CC1 | Ratio Ki | 58
CCNc1nc2cc3c(cc2s1)C[C@@H]1[C@@H]2CCCC[C@]32CCN1CC1CCC1 | Ratio Ki | 25
FC(F)(F)CNc1nc2cc3c(cc2s1)C[C@@H]1[C@@H]2CCCC[C@]32CCN1CC1CC1 | Ratio Ki | 210

For each of the items listed, what is its Ratio Ki?
1. CCCNc1nc2cc3c(cc2s1)C[C@@H]1[C@@H]2CCCC[C@]32CCN1CC1CC1
2. Nc1nc2cc3c(cc2s1)C[C@@H]1[C@@H]2CCCC[C@]32CCN1CC1CCC1
3. CN(C)c1nc2cc3c(cc2s1)C[C@@H]1[C@@H]2CCCC[C@]32CCN1CCCF

## Output
49
290
38
